runDescription: folding stability dG unfold from chymotrypsin proteolysis; higher = more stable
Class (by folding stability dG unfold) -- LOW: < 0.9 kcal/mol; MEDIUM: ≥ 0.9 kcal/mol and < 3 kcal/mol; HIGH: ≥ 3 kcal/mol

residuestring="SMVIEPKPDGTVTVTLPSSLPDLPREEVEAIVREALPPGASLGDSITVSRDPETGEVTVTAPVKFPPELASA [r9_1011_JUSTAS]" assignedcategory=LOW
residuestring="SAGGRTLEFNMKSNNPNMMENEISKLLRELGFPPGFDIEVNPERDPNGRYTYPITITVDNPELADKISAGGS [r8_85_TrROS]" assignedcategory=LOW
residuestring="SAGGSAGGSIKITIYDIMRMLGPNAPPAEWVEKVKHLAKWLADKLGLPDVEIEVEVMSPDQFPSAGGSAGGS [r12_666_TrROS]" assignedcategory=HIGH
residuestring="SAGGSAGGSAGGSAMTLLSEEELPDGSRRVLMRFPDGTRMELTVHPDGSVEERVTPPAASAGGSAGGSAGGS [r4_483_JUSTAS]" assignedcategory=MEDIUM
residuestring="SAGGSAGGSAGGMPGVTTTSTTTTTLPNGTVVTTTTTTVLLPTGTTVTVTVTTTTSATTSSAGGSAGGSAGG [r11_274_JUSTAS]" assignedcategory=MEDIUM
residuestring="SMTLEEAKEIAEKNPDIPVALIFPGKKLIYIYHPKSGKWEVKPVTSIEEAIEALEKEDIDAIFIVPAELDSA [r9_775_TrMRF]" assignedcategory=HIGH
residuestring="SAPPDDWKPVTIPILIPFDSVEDAKEWVIELANELAKKHGWRINIDVDIEPVPNRYYIKIPITIYVPKKSAG [r14_626_TrROS]" assignedcategory=MEDIUM
residuestring="SAGGSAGGSMKTVEIELVNKETGKKVTITVNDGKVTIRITNPDGEEKELEFPSLEEALEALLSSAGGSAGGS [r12_511_TrROS_Hall]" assignedcategory=MEDIUM
residuestring="SAGGSAGGSMTVERNVTSEEEAEEWREEIEKELGVKVEEVIREETEEGDLRVKFVIEIPEDLKSAGGSAGGS [r12_577_JUSTAS]" assignedcategory=LOW
residuestring="SAGGEISPEDIKELEIYPIPPEDAQKNGYIMIEIKGPGGKPIAQIMIPVRVPKVKDKDGKPMDLEDMNSAGG [r13_864_TrROS]" assignedcategory=MEDIUM
residuestring="SAGGKPKIRIKIEIYTPEKKETIELEFDSVEEALEALASLPGVKVEKLPDGTIYIKIPNLIIKIEIEPSAGG [r13_143_TrROS_Hall]" assignedcategory=HIGH
residuestring="SAMKVYKAKVTIVDEEGNLLDEIELEFETEEELKEKVLEELGVSEEEIVEIELSPEVSEEEFEKKLKLESAG [r14_852_JUSTAS]" assignedcategory=LOW
residuestring="SAGGDSVYIPGSISEAIDALRENPNKTVHIMSPDGYYIKITVKWDGDGDYKIDIKWQPPPPPPDPEDKSAGG [r13_56_TrROS]" assignedcategory=MEDIUM
residuestring="SAGGSAGGKKKVLILPKGKKKEYTIEEAKKILKEKLPENAKVRLLETGKEYPVKDLLKKLGIDLSAGGSAGG [r6_936_TrMRF]" assignedcategory=LOW
residuestring="SAGGSAGGSSMPIYTVTVTYSDGTVRTYELTPEEIEAFAAEVPDAEVTELPPGKVEVTVKIPASAGGSAGGS [r20_231_JUSTAS]" assignedcategory=MEDIUM

* * *

runDescription: folding stability dG unfold from trypsin proteolysis; higher = more stable
# if value of folding stability dG unfold reaches 0.7 kcal/mol, tag True; if it stays below, tag False

residuestring="SANDAMRKMMENMSPEDMMEMVRPPVPPPPVVTIRVPIEDLPKFLQWLSEEFGVEIEREDGYLYITVTASAG [r14_7_TrROS]" assignedcategory=False
residuestring="SAGGFEFEFTNPDGKKIKVEIERHPEEGYIMLKIQYGGKPVETFPPGDEFEIPPDGIDAVIMFRLPPESAGG [r13_958_TrROS]" assignedcategory=True
residuestring="SAGGSAGGSIAPDEPLVLEVEVEEVVPGVGEVLLPEWIAEEFPDAVIEVETDGTPVKVTIYRPSAGGSAGGS [r12_900_TrMRF]" assignedcategory=True
residuestring="SAGGSAVVVTTDPNGTLTVYADNKVVKVKVIPLPRPDPLTGSTSTLLLVEVEVSPLKPDPLPPEFPSAGGSA [r15_515_TrMRF]" assignedcategory=True
residuestring="SAGGSAMDAEQIEEKIKEAMQDHGHEVEVEVQRDPNNTVVIQVESGPGMDKDRIQEALQEKFGVKISAGGSA [r15_807_TrROS]" assignedcategory=False

* * *

runDescription: folding stability dG unfold (combined trypsin and chymotrypsin); higher = more stable
// reported folding stability dG unfold per item
observable: folding stability dG unfold (kcal/mol)

residuestring="SAGGSAGGSAGGVVELPELPPGDDAEVTEVRTPSPGPVELVLRPPHSDETTTRTLSPERLSAGGSAGGSAGG [r7_342_JUSTAS]" relationsign=< result=-1
residuestring="SAGGSAGGSAGGSKVPPGAKITVERHDGGYRTVEIRPPNGKPVEIMMPEDDADEIADQISAGGSAGGSAGGS [r4_16_TrROS]" relationsign=< result=-1
residuestring="SAGGSAGGSAGGVRIRPPNGEWIRIDNAPDDEDIKDKLKKHPNVKPEIDPDTNEAWIPVSAGGSAGGSAGGS [r10_792_TrROS]" relationsign=< result=-1
residuestring="SAGGSAGGSAGGPPIPIRIKLEHPDNGKKHTHEFPPGMSLKEVKNYMEKHPGYKIKDIEISAGGSAGGSAGG [r7_624_TrROS]" relationsign=< result=-1
residuestring="SAGGSAGGSAGYISIMIFFVLPDGYAIMVKYTFELPPNGNPKIENIEIHVMKLPPGEPIFSAGGSAGGSAGG [r11_517_TrROS]" relationsign== result=5.13
residuestring="SNEPPVIEIKFRIDEVQPMNGQPMIMFEITEIEDAPPEIQDLLKNGYYIMIHMPPGEPLKEGEEFEIHIFSA [r9_557_TrROS]" relationsign== result=2.01
residuestring="SAGGSAGGSAGGEPDKVSIHINITEEFIEQIKNGKPIPPWARPAIKYAQKKGKKVEIVWSAGGSAGGSAGGS [r10_890_TrROS]" relationsign== result=-0.498
residuestring="KAYKVVFPLPKEGRTVVVYVPEEHGKPLTEEEIAALLREAYPDKEPADLPAEELAKILAAKEGVVRVEVEGS [r1_463_TrMRF]" relationsign== result=1
residuestring="SAGGSAMAPNVRPIPIFIDVPAEPFTRDPDGRIGLTPEELARRLAEEIRARTGAPIDTIVVHFHEPSAGGSA [r15_415_TrMRF]" relationsign== result=0.409

* * *

runDescription: folding stability dG unfold from trypsin proteolysis; higher = more stable
Parameter folding stability dG unfold: see the listing below.
observable: folding stability dG unfold (kcal/mol)

residuestring="SAGGSAGGWKIIEVDPKKGVVMIEMDPEEGNWYVRVPNGPIQRFDSPEEIEEKFGFPVEIYPLPSAGGSAGG [r6_753_TrROS]" valueunits=kcal/mol result=1.3
residuestring="SAGGSAPFVPPGFVKSVEEFEVTFPDGSKYRVTLIEVDGGPLVLVEKPGVGEPKTLPFEKLLELLASAGGSA [r15_329_TrMRF]" valueunits=kcal/mol result=1.88
residuestring="SAGGSAGGSAKAVIFFEGASIEDVVEAVKARPEEEVLVVFPDGRVLLLTKDDVVVVVPAPFSAGGSAGGSAG [r3_269_TrMRF]" valueunits=kcal/mol result=1.19
residuestring="SAGGSSMKTSETTDPANGTPVRVETSIDPATNKVTTTVTTPDGTTVGSGTITIPPESSVTTTTTTTTPASAG [r5_747_JUSTAS]" valueunits=kcal/mol result=0.793
residuestring="SAGGSAGGSAGSSMTTVTVTITDTGSGKTTTTELDVPVSEVQAVIDELSPSPTLTITVVQSAGGSAGGSAGG [r17_50_JUSTAS]" valueunits=kcal/mol result=1.84
residuestring="SAGPPPVKVTVTADYVIEDGKPIVTYTLTFPDGSTTTVTSDPETLVEWLKQHYPDIDVLNFNSGTAPAASAG [r5_25_JUSTAS]" valueunits=kcal/mol result=2.78
residuestring="SAGGSAGGSAGGPKGYFRIRIEIPNGQKREIWFPPDDAEEWVKSLGIPEENVKITKIEPYSAGGSAGGSAGG [r7_211_TrROS]" valueunits=kcal/mol result=0.506
residuestring="SAIVIPIRVQMPPNDPDALEQAKEIADYIADMMMEEGYPFKIEVDDIEWERNPNGHWTVEIPIKIKPPPSAG [r14_48_TrROS]" valueunits=kcal/mol result=1.45
residuestring="SAGGSAMKVKSIHWQRHGDRPMVRIKIQNPDGKKRERNIPMDDPEKFKKEAKELAKEGKIKEIEPYSAGGSA [r15_575_TrROS]" valueunits=kcal/mol result=-0.42
residuestring="SAGGSAGGSAGGMPGVTTTSTTTTTLPNGTVVTTTTTTVLLPTGTTVTVTVTTTTSATTSSAGGSAGGSAGG [r11_274_JUSTAS]" valueunits=kcal/mol result=2.77
residuestring="SKKKKKKKKKKPKTVIIEIDVKEMSEEEIREILKKLPKNVKRVIIIAKSEEEKEKLKELLKEAGYEVEIVSA [r9_919_TrROS_Hall]" valueunits=kcal/mol result=1.96
residuestring="SAGGSAKIDIEVDPEDGYIRIKLEVQHNDEPVKATMWYPLPDDGMFIRIRFDMPNGKIEEIETIPPSAGGSA [r2_331_TrROS]" valueunits=kcal/mol result=2.69
residuestring="SMKIEIIERNEDGEYVLVRITFEDGEEITIVAKTEEEAKEAAKEIAKELFPDVKIKKIEVVPLEDLPEELSA [r9_137_TrROS_Hall]" valueunits=kcal/mol result=1.62
